Hi there, I'd appreciate the recorded apparent KD of MS2 coat protein for every entry that follows.
# Test system: MS2 coat protein
# procedure.text: apparent KD of MS2 coat protein; higher = weaker reporter binding
# condition.details: Eterna round: R101; input ligand: FMN 200 uM
One number for each entry, in nM.

Use the examples below as a reference point.
AGCUAUGACAUGAGGAUCACCCAUGUAUACAUGGGAUUGACGUAGGAUAUGCUGAAGAUUAAAGUGCAGAAGGACGGCUUAGCG [JR #DistanceFar #Hairpin #NP SSNG3 Sub065] (puzzle (switch architecture): Same State NG 3) :: 512
AAUUAAAUCCUAGGAUAUGACUCCGAAACGGAGUCAGAAGGAGGAUCACCCUUUCAAAGCUCAGCGUCGAAAGACGCUGAGCAA [#SharedSequence - ExNG1-17] (puzzle (switch architecture): Exclusion NG 1) :: 82.9
GGUCGUCACAUUAACAUGAGGAUCACCCAUGUCAAAAGACAUGAGGAUAUGCAUCCUAAUUGGAUGCAGAAGGCAUGGACGACC (puzzle (switch architecture): Same State NG 3) :: 12.5

Hi! Can you tell me apparent KD of MS2 coat protein for each of these sequences?
1. GCAGCUAAUGCAGGAUAUCAGCACGUGUAGUGCUGAGAAGGGCACAUGAGGAUCACCCAUGUGAUCAAUUAAUAUUAAUGCUGC [jl-eng1-3.00 #ENG1/11-B3_NECK] (puzzle (switch architecture): Exclusion NG 1)
2. UAAUCUCGAGCCGACGGGAGAUUACAUGAGGAUCACCCAUGUGAGGAUAUCCCUGAGAAGACGGCGGAGAAGGCACUGGGUAGG [Diraoran] (puzzle (switch architecture): Exclusion NG 3)

[A]
[41.6, 18.3]

* * *

# System: MS2 coat protein
# procedure.text: apparent KD of MS2 coat protein; designed switch direction (-1 OFF switch, 1 ON switch): -1; higher = weaker reporter binding
# condition.details: input ligand: microRNA oligo, concentration not stated
Short version: apparent KD of MS2 coat protein at least 30 nM is condition met, less is condition not met.

[Q] Decide: apparent KD of MS2 coat protein of CCUAAGAAAGGAUAUACACCGGUGGGCCGCUGAAUUCAGCAACAUGAGGAUCACCCAUGUAGAAGGUUUAUGGG [Veteso] (Eterna round: R96, puzzle: Exclusion 2) >= 30 nM?
[A] condition met

[Q] Decide: apparent KD of MS2 coat protein of UAUUUAUAGCAAGGAUAUGAUUAUUAUUAUUUAUCAGAAGGUGCACAUGAGGAUCACCCAUGUUUUACAAUUUGUAAUUUAAUU [Default title] (Eterna round: R96, puzzle: Exclusion NG 1) >= 30 nM?
[A] condition met

[Q] Decide: apparent KD of MS2 coat protein of ACAUGAGGAUCACCCAUGUGCACGUAAUGGCUCAUGUAGAGUGAGGAUAUGUGUGACGAACGAGCACAGAAGGCACAAGACUGG [Deportation 13 - Jieux - Exclusion NG 3] (Eterna round: R96, puzzle: Exclusion NG 3) >= 30 nM?
[A] condition met

[Q] Decide: apparent KD of MS2 coat protein of UACAUGAGGAUCACCCAUGUUUUGUCGUGUAUGGUAUUUAUCUAGGAUAUCAAUUUAGUUAGUUAUGAGAAGGAGAAUAUUAAU [JMF's solution 76] (Eterna round: R96, puzzle: Exclusion NG 3) >= 30 nM?
[A] condition not met

[Q] Decide: apparent KD of MS2 coat protein of GGCACACAUGUAGGAUAUCUGCACGUUUAGUGCAGAGAAGGACAUGAGGAUCACCCAUGUAAUUAAGAUCAAUUAUUAAGUGCC [ENG1/3-A2] (Eterna round: R96, puzzle: Exclusion NG 1) >= 30 nM?
[A] condition met

[Q] Decide: apparent KD of MS2 coat protein of UGAGUACUGCGAGGAUAUACAUGAGGAUCACCCAUGUAAUAGUGUGAGGCUUUGCCUCACACAAUGUAGAAGGCGCAGUACUCU [Mat - Exclusion NG 2 - Mod of JL - D5] (Eterna round: R96, puzzle: Exclusion NG 2) >= 30 nM?
[A] condition not met
